Task for the reader: assign each of the following compounds its reported control against cucumber downy mildew.
test system: cucumber downy mildew; experiment: Fungicidal activity on potted plants, cucumber downy mildew; type: in vivo; settings: 50 ppm, spray on potted plant, inoculation after 24 hours
All answers are understood in %, so give the number only.

control against cucumber downy mildew for CO/N=C(/C(=O)OC)c1ccccc1COc1cc(-c2ccc(Cl)nc2)nn1C ?
100

control against cucumber downy mildew for CO/C=C(/C(=O)OC)c1ccccc1COc1cc(-c2ccccc2)nn1C ?
100

control against cucumber downy mildew for CO/C=C(/C(=O)OC)c1ccccc1COc1cc(-c2ccc(Cl)cc2)nn1C ?
100

control against cucumber downy mildew for CO/C=C(/C(=O)OC)c1ccccc1COc1cc(-c2ccc(Cl)nc2)nn1C ?
100

control against cucumber downy mildew for CO/C=C(/C(=O)OC)c1ccccc1COc1cc(-c2ccc(C(F)(F)F)cc2)nn1C ?
100

control against cucumber downy mildew for CO/C=C(/C(=O)OC)c1ccccc1COc1cc(-c2ccc([N+](=O)[O-])cc2)no1 ?
100

control against cucumber downy mildew for CO/C=C(/C(=O)OC)c1ccccc1COc1cc(-c2ccc(Cl)cc2)no1 ?
100

control against cucumber downy mildew for CO/C=C(/C(=O)OC)c1ccccc1COc1cc(-c2ccc([N+](=O)[O-])cc2)nn1C ?
100

control against cucumber downy mildew for CO/C=C(/C(=O)OC)c1ccccc1COc1c(C)c(-c2ccc(Cl)cc2)nn1C ?
100
